molecular target: T1, Recombinant human CD4 (R&D Systems, Cat. 10327-CD) (human, UniProt P01730 26-390, limits assumed); experiment: BLI (Octet Red384), purified antibody on anti-mouse Fc sensors, human CD4 100/50/25 nM, global 1:1 fit;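 further: antibodies loaded at 10 µg/mL, curves fitted across association and dissociation phases, with an unrelated mouse-derived antibody serving as internal reference control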
T1 construct: Bought protein; also called huCD4
Below, each entry is listed with its recorded koff.
Provide the reading as a plain figure in s⁻¹.

Some entries whose results are on file:
{"columns": ["binder", "koff [s⁻¹]"],
 "data": [
  ["75110_08D24A (antibody, V domains shown, Tested as antibody purified from AlivaMab Mouse Kappa hybridoma (human V regions, kappa light chain, mouse Fc captured by anti-mouse Fc sensors)) VH: QVQLQESGPGLVKPSETLSLTCTVSGGSISGFYWSWIRQPAGKGLEWIGRIYTSENTNYNPSLKSRVTMSVDTSKNQFSLKLSSVTAADTAVYYCARDREGYYYYGMDVWGQGTTVTVSS VL: DIQMTQSPSSLSASVGDRVTITCQASQDISNYLNWYQQKPGKAPKLLIYAASNLETGVPSRFSGSGSGTDFTFTISSLQPEDIATYYCQQYDSLPITFGQGTRLEIK", 0.00027],
  ["75110_06D16A (antibody, V domains shown, Tested as antibody purified from AlivaMab Mouse Kappa hybridoma (human V regions, kappa light chain, mouse Fc captured by anti-mouse Fc sensors)) VH: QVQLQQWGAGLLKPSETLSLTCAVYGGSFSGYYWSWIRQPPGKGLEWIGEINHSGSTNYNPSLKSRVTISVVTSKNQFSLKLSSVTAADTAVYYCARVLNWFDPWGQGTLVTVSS VL: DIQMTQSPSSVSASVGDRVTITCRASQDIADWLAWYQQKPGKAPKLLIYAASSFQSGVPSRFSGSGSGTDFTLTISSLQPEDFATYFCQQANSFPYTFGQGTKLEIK", 0.00028]
]}

Q. Return koff for the following binder: 75110_14I16A (antibody, V domains shown, Tested as antibody purified from AlivaMab Mouse Kappa hybridoma (human V regions, kappa light chain, mouse Fc captured by anti-mouse Fc sensors); also called 75110_14116A) VH: QVQLQESGPGLVKPSETLSLTCTVSNGSISSYYWSWIRQSAGKGLEWIGRIYTSGSTNYNPSLKSRVTMLVDTSKNQFSLKLSSVTAADTAVYYCARDREDYYYYGMDVWGQGTTVTVSS VL: DIQMTQSPSSLSASVGDRVTITCQASHDISNYLNWYQQKPGKAPKLLLYYASNLETGVPSRFSGSGSGTDFTFTITSLQPEDIGTYSCQQYDNLPLTFGGGTKVEIK
A. 0.0017
